Overview of reported ΔTm across a group of compounds:
target: Serine/threonine-protein kinase pim-3 (Homo sapiens); experiment: Inhibition of recombinant PIM3 (unknown origin) assessed as change in melting temperature at 10 uM by SYPRO orange dye-based differential scanning fluorimetry
MEASUREMENT_NAME: ΔTm (°C)

- SMI: "O=C1NC(=S)S/C1=C\\c1csc(-c2cccc(O)c2)n1"
  MEASUREMENT_NAME: "ΔTm"
  REPORTED_MEASUREMENT: 14.9
- SMI: "O=C1NC(=S)S/C1=C\\c1csc(-c2cccc(C(F)(F)F)c2)n1"
  MEASUREMENT_NAME: "ΔTm"
  REPORTED_MEASUREMENT: 9.1
- SMI: "COc1cccc(-c2nc(/C=C3\\SC(=S)NC3=O)cs2)c1"
  MEASUREMENT_NAME: "ΔTm"
  REPORTED_MEASUREMENT: 13.4
